So I've got a bunch of binders here, and I need their ELISA (OD 450) at 33.3 nM values.
target: soluble TSHR protein (ELISA coat) (human, UniProt P16473 22-260, limits assumed); assay: ELISA, plate coated with soluble TSHR, antibody at 33.3 nM, anti-human IgG Fc-HRP;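 further: binding of antibody variants to plate-bound soluble TSHR (coated at 2 µg/ml), with bound human IgG detected by HRP conjugate and colour developed using TMB substrate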
Give bare numbers, in OD 450.

1. TSHB-5 (antibody, V domains shown) VH: EVQLVQSGAEVKKPGESLKISCKASGYQLTDNWIGWVRQKPGKGLEWMGIIYPGDSDTRYSPSFQGQVTISADKSISTAYLQWSSLKASDTAIYYCVGLDWNYNPLRYWGQGTLVTVSS VL: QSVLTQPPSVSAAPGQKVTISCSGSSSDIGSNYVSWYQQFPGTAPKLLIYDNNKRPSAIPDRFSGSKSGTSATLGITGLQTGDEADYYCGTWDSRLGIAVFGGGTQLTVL :: 0.414

Read the next record carefully.
Short answer for TSHB-15 (antibody, V domains shown) VH: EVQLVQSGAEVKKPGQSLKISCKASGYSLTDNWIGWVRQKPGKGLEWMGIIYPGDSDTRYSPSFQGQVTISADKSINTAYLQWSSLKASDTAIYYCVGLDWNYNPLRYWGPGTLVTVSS VL: QSVLTQPPSVSAAPGQKVTISCSGSSSDIGSNYVSWYQQLPGTAPKLLIYDNNKRPSGIPDRFSGSKSGTSATLGITGLQTGDEADYYCGTWDSRFGIAVFGGGTQLTVL : ELISA (OD 450) at 33.3 nM was 0.443
